- target_system: BDNF/NT-3 growth factors receptor (Homo sapiens) (UniProt Q16620)
- Sequence (Q16620 32-822 limits assumed): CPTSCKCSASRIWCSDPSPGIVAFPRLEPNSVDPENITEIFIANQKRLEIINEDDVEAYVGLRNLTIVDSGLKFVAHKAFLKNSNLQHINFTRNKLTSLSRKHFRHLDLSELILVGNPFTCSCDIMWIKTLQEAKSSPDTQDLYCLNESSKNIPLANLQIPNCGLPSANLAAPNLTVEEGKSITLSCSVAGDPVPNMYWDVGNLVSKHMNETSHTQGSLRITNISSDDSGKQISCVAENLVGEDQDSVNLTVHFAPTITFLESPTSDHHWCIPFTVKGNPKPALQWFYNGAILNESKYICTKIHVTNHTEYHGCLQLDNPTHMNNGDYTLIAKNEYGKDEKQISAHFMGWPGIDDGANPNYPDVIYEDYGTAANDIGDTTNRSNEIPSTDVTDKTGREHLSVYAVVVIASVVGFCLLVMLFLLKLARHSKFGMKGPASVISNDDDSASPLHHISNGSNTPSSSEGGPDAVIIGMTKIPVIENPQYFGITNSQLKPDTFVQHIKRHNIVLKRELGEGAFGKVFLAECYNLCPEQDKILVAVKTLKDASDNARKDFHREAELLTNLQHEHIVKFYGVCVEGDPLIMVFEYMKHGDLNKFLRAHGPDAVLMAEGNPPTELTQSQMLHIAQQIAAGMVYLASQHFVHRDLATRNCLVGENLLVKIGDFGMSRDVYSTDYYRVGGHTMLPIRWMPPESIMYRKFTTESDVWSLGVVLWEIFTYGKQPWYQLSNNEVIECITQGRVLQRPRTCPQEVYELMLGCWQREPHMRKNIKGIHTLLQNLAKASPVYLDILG
- assay_setup: at 10 µM
Quick list: residual activity per entry.
Reply with the number, then its unit.

Requested read-out: residual activity. Entry: c1ccc(-c2cnc(Nc3ccc(OCCN4CCCC4)cc3)s2)cc1
3%

====

- target_system: MAP kinase-activated protein kinase 3 (Homo sapiens) (UniProt Q16644)
- Sequence (Q16644 whole entry, looked up): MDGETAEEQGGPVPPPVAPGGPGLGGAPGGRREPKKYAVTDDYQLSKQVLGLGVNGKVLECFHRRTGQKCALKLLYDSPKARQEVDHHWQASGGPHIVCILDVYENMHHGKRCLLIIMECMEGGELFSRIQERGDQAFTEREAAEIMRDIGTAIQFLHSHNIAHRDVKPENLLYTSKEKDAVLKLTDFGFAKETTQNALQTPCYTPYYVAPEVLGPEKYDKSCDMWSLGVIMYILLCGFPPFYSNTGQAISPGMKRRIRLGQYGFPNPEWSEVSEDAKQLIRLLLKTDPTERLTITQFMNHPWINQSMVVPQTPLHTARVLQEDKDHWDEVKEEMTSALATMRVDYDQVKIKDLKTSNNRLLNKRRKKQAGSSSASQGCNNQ
- assay_setup: at 10 µM
Quick list: residual activity per entry.
Record the value in %, omitting the unit from your answer.

See these solved cases before continuing.
1) O=C1Nc2ccc(Cl)cc2/C1=C/c1cc(Cl)c(O)c(Cl)c1; 61
2) CCOC(=O)c1c(C)[nH]c(/C=C2\C(=O)Nc3ccccc32)c1C; 95
3) CN(C)S(=O)(=O)c1ccc2c(c1)/C(=C/c1cc3c([nH]1)CCCC3)C(=O)N2; 92
4) Cn1c2ccccc2c2c3c(c4c5ccccc5n(CCC#N)c4c21)CNC3=O; 77
5) O=C(Nc1nc2ccccc2n1CCN1CCOCC1)c1cccc([N+](=O)[O-])c1; 84
6) Nc1ncnc2[nH]nc(Nc3ccc(F)cc3)c12; 112
7) CCCC(=O)Oc1ccc2[nH]c(C(=O)c3cc4ccccc4[nH]3)cc2c1; 94
8) c1ccc(-c2cnc(Nc3ccc(OCCN4CCCC4)cc3)s2)cc1; 104

Attention now shifts to the item below.
Fill in the recorded residual activity for this compound, with MAP kinase-activated protein kinase 3 (Homo sapiens) (UniProt Q16644) as test system: N#C/C(=C1/Nc2ccccc2S1)c1ccnc(NCCc2cccnc2)n1
68

====

- target_system: Vascular endothelial growth factor receptor 3 (Homo sapiens)
- assay_setup: at 10 µM
residual activity vs 30%: at or above is condition met, below is condition not met.

1) O=C1Cc2c([nH]c3ccc(Br)cc23)-c2ccccc2N1; condition not met
2) O=C1C(Cl)=C(N2C(=O)CCC2=O)C(=O)c2ccccc21; condition met

Is residual activity at least 30%? Consider Cn1sc(=O)n(Cc2ccccc2)c1=O
condition met

Is residual activity at least 30%? Consider O=C1Nc2ccc(Cl)cc2/C1=C/c1cc(Cl)c(O)c(Cl)c1
condition not met

Is residual activity at least 30%? Consider Nc1n[nH]c2nc3ccccc3nc12
condition met

Is residual activity at least 30%? Consider O=C(Nc1ccc(Cl)cc1)c1ccccc1NCc1ccncc1
condition not met

Is residual activity at least 30%? Consider CCOc1nc(NC(=O)Cc2cc(OC)ccc2OC)cc(N)c1C#N
condition met

====

- target_system: Ribosomal protein S6 kinase alpha-3 (Homo sapiens) (UniProt P51812)
- Sequence (P51812 whole entry): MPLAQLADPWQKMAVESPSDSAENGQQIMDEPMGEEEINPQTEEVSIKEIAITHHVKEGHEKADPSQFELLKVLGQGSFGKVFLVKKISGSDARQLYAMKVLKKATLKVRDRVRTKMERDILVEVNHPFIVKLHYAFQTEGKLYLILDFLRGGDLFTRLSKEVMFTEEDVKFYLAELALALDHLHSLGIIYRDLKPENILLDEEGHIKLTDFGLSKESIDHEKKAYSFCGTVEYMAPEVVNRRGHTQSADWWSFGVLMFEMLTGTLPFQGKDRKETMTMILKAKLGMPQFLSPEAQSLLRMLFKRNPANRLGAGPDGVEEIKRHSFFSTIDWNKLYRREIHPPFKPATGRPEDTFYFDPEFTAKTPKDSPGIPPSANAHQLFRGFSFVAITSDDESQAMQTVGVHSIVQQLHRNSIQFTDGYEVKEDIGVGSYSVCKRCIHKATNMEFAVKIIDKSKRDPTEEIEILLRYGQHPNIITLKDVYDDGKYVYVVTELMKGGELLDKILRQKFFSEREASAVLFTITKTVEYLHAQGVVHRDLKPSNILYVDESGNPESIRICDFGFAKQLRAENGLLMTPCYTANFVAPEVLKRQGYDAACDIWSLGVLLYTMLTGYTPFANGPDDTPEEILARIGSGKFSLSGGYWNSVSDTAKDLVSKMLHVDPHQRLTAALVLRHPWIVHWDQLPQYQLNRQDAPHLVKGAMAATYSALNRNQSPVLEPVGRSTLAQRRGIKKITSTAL
- assay_setup: at 1 µM
Hi! Could you tag entries with residual activity below 50% as yes (1), and those at or above as no (0)? Much appreciated.

Given NC(=O)c1ccc(-c2nc(-c3ccc4c(c3)OCCO4)c(-c3ccccn3)[nH]2)cc1 , is recorded residual activity strictly lower than 50%?
no (0)

Given O=C(c1cc2cc(O)ccc2[nH]1)c1cc2cc(O)ccc2[nH]1 , is recorded residual activity strictly lower than 50%?
yes (1)

Given Nc1nccc(-c2c(-c3ccc(F)cc3)ncn2C2CCNCC2)n1 , is recorded residual activity strictly lower than 50%?
no (0)

Given CC(C)N(CCC(=O)c1ccc2ccccc2c1)Cc1ccccc1 , is recorded residual activity strictly lower than 50%?
no (0)

Given Fc1ccc(-c2nc3n(c2-c2ccncc2)CCS3)cc1 , is recorded residual activity strictly lower than 50%?
no (0)

All figures here come from ChEMBL document CHEMBL2218924.
